System: HaCat
Assay Protocol: Cytotoxic Profiling of Annotated Libraries Using Quantitative High-Throughput Screening (AID 1296008); note: % is set by controls: 0 for no effect and ±100 for the full control effect
Condition Summary: Five cell lines viability, CellTiter-Glo ATP luminescence, 48-72 h; stronger effect = lower value
Records with an inconclusive call do not appear.
Measured Endpoint: max response (%)
Lab book: enter the figure in %, no units written.

Exam item: Assign max response to the following record: `CNC(=O)[C@H](CC1=CN=C2C=CCC=C12)NC(=O)[C@@H](CC(=O)NO)CC(C)C`
Marked response: -12.2

Exam item: Assign max response to the following record: `CC(C)C[C@H](NC(=O)c1cc2ccccc2s1)C(=O)N1CCN(C(=O)[C@H](CO)NS(=O)(=O)c2ccc(Cl)cc2Cl)CC1`
Marked response: -15.5

Exam item: Assign max response to the following record: `Cc1cnc(CNC(=O)c2c(=O)c3ccc(N4CCCN(C)CC4)nc3n3c2sc2ccccc23)cn1`
Marked response: -24.1

Exam item: Assign max response to the following record: `CC(C)N(CCCNC(=O)Nc1ccc(C(C)(C)C)cc1)C[C@H]1O[C@@H](n2cc(Br)c3c(N)ncnc32)[C@H](O)[C@H]1O`
Marked response: -6.68

Exam item: Assign max response to the following record: `Cc1[nH]c(C=C2C(=O)Nc3ccc(S(=O)(=O)N(C)c4cccc(Cl)c4)cc32)c(C)c1C(=O)N1CCN(C)CC1`
Marked response: -0.347

Exam item: Assign max response to the following record: CC1=C(C(=O)Nc2cc3cn[nH]c3cc2F)C(c2ccc(C(F)(F)F)cc2)CC(=O)N1 (configuration not stated)
Marked response: 3.22

Exam item: Assign max response to the following record: CC[C@@H]([C@H](C)O)n1ncn(-c2ccc(N3CCN(c4ccc(OCC5CO[C@@](Cn6cncn6)(c6ccc(F)cc6F)C5)cc4)CC3)cc2)c1=O (some centres not stated)
Marked response: -20.3

Exam item: Assign max response to the following record: `CC(C)(C)c1nc(-c2cccc(NS(=O)(=O)c3c(F)cccc3F)c2F)c(-c2ccnc(N)n2)s1`
Marked response: -2.38

Exam item: Assign max response to the following record: `CCCCC[C@H](O)C=C[C@H]1[C@H](O)CC(=O)[C@H]1CCCCCCC(=O)O`
Marked response: -1.7

Exam item: Assign max response to the following record: `NC1(C(=O)N[C@@H](CCO)c2ccc(Cl)cc2)CCN(c2ncnc3[nH]ccc23)CC1`
Marked response: -16.7

Exam item: Assign max response to the following record: `CSc1cccc(Nc2ncc3cc(-c4c(Cl)cccc4Cl)c(=O)n(C)c3n2)c1`
Marked response: -17.3

Exam item: Assign max response to the following record: `O=C(Nc1cccc(C(F)(F)F)c1)Nc1cc(S(=O)(=O)NC2CC2)ccc1-c1ccsc1`
Marked response: -22.2
